Please go through the items and note down their pIC50.
biological target: UniProt B4URF0; experiment: Inhibition of Influenza A virus A/California/07/2009 (H1N1) neuraminidase using MUNANA as substrate preincubated for 30 mins measured after 2 hrs
Sequence (B4URF0 whole entry): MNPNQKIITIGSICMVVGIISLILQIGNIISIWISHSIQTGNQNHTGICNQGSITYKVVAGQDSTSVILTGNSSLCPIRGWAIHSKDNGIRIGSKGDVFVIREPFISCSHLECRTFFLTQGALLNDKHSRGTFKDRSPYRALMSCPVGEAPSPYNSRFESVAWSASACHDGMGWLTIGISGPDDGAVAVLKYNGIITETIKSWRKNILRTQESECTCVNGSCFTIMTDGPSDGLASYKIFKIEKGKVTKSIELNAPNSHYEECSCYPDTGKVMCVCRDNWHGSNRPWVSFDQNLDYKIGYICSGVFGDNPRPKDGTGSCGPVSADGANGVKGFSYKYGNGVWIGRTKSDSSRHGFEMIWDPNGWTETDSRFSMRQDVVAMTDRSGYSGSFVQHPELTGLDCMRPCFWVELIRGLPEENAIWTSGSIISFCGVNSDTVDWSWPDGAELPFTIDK
API: returns pIC50 as number; meaning -log10 of concentration in mol/L.

Report pIC50, nothing else, for this compound: CC(=O)N[C@H]1[C@H]([C@H](O)[C@H](O)CO)OC(SCCOCCOCCOCCOCCSC2(C(=O)O)C[C@H](N)[C@@H](NC(C)=O)[C@H]([C@H](O)[C@H](O)CO)O2)(C(=O)O)C[C@@H]1N (stereo partly drawn) 4.44

Report pIC50, nothing else, for this compound: CC(=O)N[C@H]1[C@H]([C@H](O)[C@H](O)CO)OC(SCCCCCCS)(C(=O)O)C[C@@H]1NC(=N)N (stereo partly drawn) 6.10

Report pIC50, nothing else, for this compound: CC(=O)N[C@H]1[C@H]([C@H](O)[C@H](O)CO)OC(SCCCCCCSC2(C(=O)O)C[C@H](N)[C@@H](NC(C)=O)[C@H]([C@H](O)[C@H](O)CO)O2)(C(=O)O)C[C@@H]1N (stereo partly drawn) 5.00
